# tgt: cAMP and cAMP-inhibited cGMP 3',5'-cyclic phosphodiesterase 10A (Homo sapiens)
# Sequence (Q9Y233 whole entry): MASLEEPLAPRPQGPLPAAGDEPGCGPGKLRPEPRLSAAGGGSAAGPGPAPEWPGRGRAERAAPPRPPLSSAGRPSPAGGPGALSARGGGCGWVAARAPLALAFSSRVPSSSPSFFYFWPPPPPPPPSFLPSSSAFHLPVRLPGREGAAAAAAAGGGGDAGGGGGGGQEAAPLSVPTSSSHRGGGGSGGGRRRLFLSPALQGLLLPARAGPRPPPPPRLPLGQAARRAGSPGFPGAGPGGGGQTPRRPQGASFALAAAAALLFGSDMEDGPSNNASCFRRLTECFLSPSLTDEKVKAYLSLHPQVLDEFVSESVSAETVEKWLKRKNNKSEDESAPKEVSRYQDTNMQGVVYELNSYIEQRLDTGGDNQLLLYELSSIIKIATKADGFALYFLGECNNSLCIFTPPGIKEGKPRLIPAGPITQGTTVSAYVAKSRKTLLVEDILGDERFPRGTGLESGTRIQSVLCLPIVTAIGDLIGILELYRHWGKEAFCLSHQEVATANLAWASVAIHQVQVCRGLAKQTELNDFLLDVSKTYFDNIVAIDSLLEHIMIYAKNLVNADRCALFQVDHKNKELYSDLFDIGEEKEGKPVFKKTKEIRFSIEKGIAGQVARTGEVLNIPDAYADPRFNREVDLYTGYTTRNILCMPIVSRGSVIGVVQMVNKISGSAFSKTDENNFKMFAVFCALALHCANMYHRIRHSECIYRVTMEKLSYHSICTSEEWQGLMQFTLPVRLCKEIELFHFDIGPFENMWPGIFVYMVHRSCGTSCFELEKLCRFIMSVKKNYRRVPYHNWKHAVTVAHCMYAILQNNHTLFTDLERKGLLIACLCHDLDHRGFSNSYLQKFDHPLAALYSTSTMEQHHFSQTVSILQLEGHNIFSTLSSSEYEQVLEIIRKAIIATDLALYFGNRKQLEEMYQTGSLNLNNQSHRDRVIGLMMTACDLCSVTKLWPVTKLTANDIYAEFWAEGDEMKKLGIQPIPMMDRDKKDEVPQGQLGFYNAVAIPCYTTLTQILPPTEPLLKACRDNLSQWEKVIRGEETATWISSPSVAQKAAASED
# measurement_description: Diaxonhit Phosphodiesterase Assay: The phosphodiesterase assay was developed using the LANCE cAMP kit (PerkinElmer). The assay buffer contained HBSS with 5 mM HEPES, 0.1% BSA, and 1.5 mM MgCl2, pH 7.4. PDE10A (BPS Bioscience) was used at 200 pg/well (with a specific activity of 3200 pmole/min/ug with assay conditions: 10 mM Tris-HCl, pH 7.4, 10 mM MgCl2, 1 mM MnCl2, 200 uM cAMP, 2.5 kU 5' nucleotidase, 37° C., 20 min) and PDE4D3 (BPS Bioscience) was used at 100 pg/well (with a specific activity of 32713 pmole/min/ug with assay conditions: 10 mM Tris-HCl, pH 7.4, 10 mM MgCl2, 1 mM MnCl2, 200 uM cAMP, 2.5 kU 5' nucleotidase, 37° C., 20 min). The Biotin-cAMP tracer, supplied in 10 mmol/L Tris-HCl buffered (pH 8.0) salt solution with 1 mmol/L ethylenediaminetetraacetic acid (EDTA), 0.1% bovine serum albumin (BSA), and 0.05% sodium azide, is used at a dilution of 1/375. The assay detection mixture contained the LANCE Eu-W8044 labeled streptavidin 1/2250 (supplied in 50 mmol/L Tris-HCl buffer).
measured_parameter: pIC50
Lab note: report pIC50 as minus log10 of the concentration in molar units, number only.

COc1cc2cncc(Cc3ccc4c(c3)CCC(C)(C)O4)c2cc1OC	7.09
COc1cc2cncc(Cc3coc4ccc(F)cc4c3=O)c2cc1OC	7.42
COc1cc2c(Cc3ccc4nc(C)ccc4c3)cnc(C3CC3)c2cc1OC	7.60
COc1cc2c(Cc3ccc4nc(C)ccc4c3)cnc(-c3ccccc3)c2cc1OC	6.83
COCc1ncc(Cc2ccc3cccc(N)c3n2)c2cc(OC)c(OC)cc12	8.07

Enter reported pIC50 observed with cAMP and cAMP-inhibited cGMP 3',5'-cyclic phosphodiesterase 10A (Homo sapiens) for "COc1cc2cncc(Cc3ccc4[nH]c(=O)oc4c3)c2cc1OC" 7.47

Enter reported pIC50 observed with cAMP and cAMP-inhibited cGMP 3',5'-cyclic phosphodiesterase 10A (Homo sapiens) for "COCc1ncc(Cc2cnc3ccc(O)cc3c2)c2cc(OC)c(OC)cc12" 8.25

Enter reported pIC50 observed with cAMP and cAMP-inhibited cGMP 3',5'-cyclic phosphodiesterase 10A (Homo sapiens) for "COc1cc2cncc(Cc3ccc4cccc(O)c4n3)c2cc1OC" 7.64

Enter reported pIC50 observed with cAMP and cAMP-inhibited cGMP 3',5'-cyclic phosphodiesterase 10A (Homo sapiens) for "CCCc1ncc(Cc2ccc3oc(=O)[nH]c3c2)c2cc(OC)c(OC)cc12" 7.19

Enter reported pIC50 observed with cAMP and cAMP-inhibited cGMP 3',5'-cyclic phosphodiesterase 10A (Homo sapiens) for "COc1cc2cncc(Cc3coc4ccc(C)cc4c3=O)c2cc1OC" 8.29

Enter reported pIC50 observed with cAMP and cAMP-inhibited cGMP 3',5'-cyclic phosphodiesterase 10A (Homo sapiens) for "CCOc1cc2c(Cc3ccc4oc5ccccc5c4c3)cncc2cc1OC" 6.54

Enter reported pIC50 observed with cAMP and cAMP-inhibited cGMP 3',5'-cyclic phosphodiesterase 10A (Homo sapiens) for "CCCc1ncc(Cc2coc3ccc(F)cc3c2=O)c2cc(OC)c(OC)cc12" 7.27
